- Test system: Zika virus NS2B-NS3 protease
- METHOD: Primary screen GU AMC qHTS for Zika virus inhibitors (AID 1347154); also: nearly all actives have a fitted effect of over 70% in size
- DETAILS: Zika NS2B-NS3 unlinked protease, AMC fluorogenic substrate; series mostly up to 54.1 µM
Results filed as inconclusive are left out. Calls of active or inactive are those of the source. Calls follow the shape of the dose curve; as a rule, active = well fitted inhibition curve with a large enough effect; inconclusive = small, poorly fitted or top-dose-only effect; inactive = flat fitted curve, though single readings scatter.
Possible outcomes: YES = active, NO = inactive

MOLECULE: CC(C)(C)NC(=O)[C@H]1CC[C@H]2[C@@H]3CC[C@H]4NC(=O)C=C[C@]4(C)[C@H]3CC[C@]12C
ASSIGNED_CLASS: NO

MOLECULE: CNS(=O)(=O)CCc1ccc2[nH]cc(C3CCN(C)CC3)c2c1
ASSIGNED_CLASS: NO

MOLECULE: CC(C)(C#N)c1cc(Cn2cncn2)cc(C(C)(C)C#N)c1
ASSIGNED_CLASS: NO

MOLECULE: COc1cc2c(Nc3ccc(Br)cc3F)ncnc2cc1OCC1CCN(C)CC1
ASSIGNED_CLASS: NO

MOLECULE: COc1cc(NS(=O)(=O)c2ccc(N)cc2)nc(OC)n1
ASSIGNED_CLASS: NO

MOLECULE: OCc1ccc(-c2nn(Cc3ccccc3)c3ccccc23)o1
ASSIGNED_CLASS: YES

MOLECULE: CC(=O)[C@H]1CC[C@H]2[C@@H]3CCC4=CC(=O)CC[C@]4(C)[C@H]3CC[C@]12C
ASSIGNED_CLASS: NO

MOLECULE: CCCc1cc(C(N)=S)ccn1
ASSIGNED_CLASS: NO

MOLECULE: COc1ccc(-c2ccc3cc(C(=O)O)ccc3c2)cc1C12CC3CC(CC(C3)C1)C2
ASSIGNED_CLASS: NO

MOLECULE: O=C(O)CSCC(=O)NC1CCSC1=O (stereo unspecified)
ASSIGNED_CLASS: NO

MOLECULE: CN(C)CCc1c[nH]c2ccc(C[C@H]3COC(=O)N3)cc12
ASSIGNED_CLASS: NO
